# Species on record: Rattus norvegicus
# PROTOCOL_TEXT: DrugMatrix - Regimen: Daily Repeat
# Assay type: toxicity, organism-based, Sprague-Dawley
# Set-up: regimen Daily Repeat, gender Male, age 6-8 weeks
# CONDITION_PARAMETERS: in vivo, ip, 0 mg/kg, […], tissue Blood, route intraperitoneal, dose level Control, time 28 day, vehicle 100 % SALINE
Listed next: entries and their corresponding ABSOLUTE BASOPHIL.
ASSAY_ENDPOINT: ABSOLUTE BASOPHIL (cells/µL)

INSERT INTO results (substance, readout_unit, observed_measurement) VALUES
  ('CISPLATIN', 'cells/µL', 91),
  ('GOLD SODIUM THIOMALATE', 'cells/µL', 91),
  ('CARBOPLATIN', 'cells/µL', 91);

* * *

Listed next: entries and their corresponding POTASSIUM.
# Organism: Rattus norvegicus
# PROTOCOL_TEXT: DrugMatrix - Regimen: Daily Repeat
# Format: toxicity, organism-based, Sprague-Dawley
# Design: regimen Daily Repeat, gender Male, age 6-8 weeks
# CONDITION_PARAMETERS: in vivo, iv, 0 mg/kg, 120 h, tissue Plasma, dose level Control, time 5 day, vehicle 100 % SALINE
ASSAY_ENDPOINT: POTASSIUM (MEQ/L)

INSERT INTO assay_data (smiles_entry, assay_endpoint, observed_measurement) VALUES
  ('NCC[C@H](O)C(=O)N[C@@H]1C[C@H](N)[C@@H](O[C@H]2O[C@H](CN)[C@@H](O)[C@H](O)[C@H]2O)[C@H](O)[C@H]1O[C@H]1O[C@H](CO)[C@@H](O)[C@H](N)[C@H]1O', 'POTASSIUM', 5.37),
  ('CC[C@@]1(O)C(=O)OCc2c1cc1n(c2=O)Cc2cc3ccccc3nc2-1', 'POTASSIUM', 5.51),
  ('CC1(C)S[C@@H]2[C@H](NC(=O)[C@H](NC(=O)N3CCNC3=O)c3ccccc3)C(=O)N2[C@H]1C(=O)O', 'POTASSIUM', 6.54),
  ('CN(N=O)C(=O)N[C@@H](C=O)[C@@H](O)[C@H](O)[C@H](O)CO', 'POTASSIUM', 6.35);

* * *

# Organism: Rattus norvegicus
# PROTOCOL_TEXT: DrugMatrix - Regimen: Daily Repeat
# Format: toxicity, organism-based, Sprague-Dawley
# Design: regimen Daily Repeat, gender Male, age 6-8 weeks
# CONDITION_PARAMETERS: in vivo, po, 10 mg/kg, 72 h, tissue Plasma, route oral GAVAGE, dose level Low, time 3 day, vehicle .5 % CMC
ASSAY_ENDPOINT: BLOOD UREA NITROGEN (mg/dL)

INSERT INTO measurements (compound, assay_endpoint, observed_measurement) VALUES
  ('CC(=O)O[C@]1(C(C)=O)CC[C@H]2[C@@H]3C=C(Cl)C4=CC(=O)CC[C@]4(C)[C@H]3CC[C@@]21C [CHLORMADINONE ACETATE]', 'BLOOD UREA NITROGEN', 17.67),
  ('NS(=O)(=O)c1cc2c(cc1Cl)NCNS2(=O)=O [HYDROCHLOROTHIAZIDE]', 'BLOOD UREA NITROGEN', 14.33),
  ('O=C1CN=C(c2ccccc2)c2cc([N+](=O)[O-])ccc2N1 [NITRAZEPAM]', 'BLOOD UREA NITROGEN', 15),
  ('COc1c(C)c2c(c(O)c1C/C=C(\C)CCC(=O)OCCN1CCOCC1)C(=O)OC2 [MYCOPHENOLATE MOFETIL]', 'BLOOD UREA NITROGEN', 16.33);

* * *

# Species on record: Rattus norvegicus
# PROTOCOL_TEXT: DrugMatrix - Regimen: Daily Repeat
# Type: toxicity, organism-based, Sprague-Dawley
# Parameters: regimen Daily Repeat, gender Male, age 6-8 weeks
# CONDITION_PARAMETERS: in vivo, po, 10 mg/kg, 72 h, tissue Plasma, route oral GAVAGE, dose level Low, time 3 day, vehicle .5 % CMC
Listed next: entries and their corresponding LIPASE.
ASSAY_ENDPOINT: LIPASE (u/L)

INSERT INTO results (molecule, assay_endpoint, readout_unit, observed_measurement) VALUES
  ('NS(=O)(=O)c1cc2c(cc1Cl)NCNS2(=O)=O [HYDROCHLOROTHIAZIDE]', 'LIPASE', 'u/L', 10),
  ('O=C1CN=C(c2ccccc2)c2cc([N+](=O)[O-])ccc2N1', 'LIPASE', 'u/L', 10),
  ('CC(=O)O[C@]1(C(C)=O)CC[C@H]2[C@@H]3C=C(Cl)C4=CC(=O)CC[C@]4(C)[C@H]3CC[C@@]21C [CHLORMADINONE ACETATE]', 'LIPASE', 'u/L', 12),
  ('COc1c(C)c2c(c(O)c1C/C=C(\C)CCC(=O)OCCN1CCOCC1)C(=O)OC2 [MYCOPHENOLATE MOFETIL]', 'LIPASE', 'u/L', 9.67);

* * *

Listed next: entries and their corresponding ALKALINE PHOSPHATASE.
# Organism: Rattus norvegicus
# PROTOCOL_TEXT: DrugMatrix - Regimen: Daily Repeat
# Assay type: toxicity, organism-based, Sprague-Dawley
# Design: regimen Daily Repeat, gender Male, age 6-8 weeks
# CONDITION_PARAMETERS: in vivo, iv, 0 mg/kg, 120 h, tissue Plasma, dose level Control, time 5 day, vehicle 100 % SALINE
ASSAY_ENDPOINT: ALKALINE PHOSPHATASE (u/L)

INSERT INTO measurements (smiles_entry, assay_endpoint, readout_unit, observed_measurement) VALUES
  ('CN(N=O)C(=O)N[C@@H](C=O)[C@@H](O)[C@H](O)[C@H](O)CO', 'ALKALINE PHOSPHATASE', 'u/L', 352.67),
  ('NCC[C@H](O)C(=O)N[C@@H]1C[C@H](N)[C@@H](O[C@H]2O[C@H](CN)[C@@H](O)[C@H](O)[C@H]2O)[C@H](O)[C@H]1O[C@H]1O[C@H](CO)[C@@H](O)[C@H](N)[C@H]1O', 'ALKALINE PHOSPHATASE', 'u/L', 364.83),
  ('CC[C@@]1(O)C(=O)OCc2c1cc1n(c2=O)Cc2cc3ccccc3nc2-1', 'ALKALINE PHOSPHATASE', 'u/L', 392.67),
  ('CC1(C)S[C@@H]2[C@H](NC(=O)[C@H](NC(=O)N3CCNC3=O)c3ccccc3)C(=O)N2[C@H]1C(=O)O', 'ALKALINE PHOSPHATASE', 'u/L', 357.33);

* * *

# Species on record: Rattus norvegicus
# PROTOCOL_TEXT: DrugMatrix - Regimen: Daily Repeat
# Assay type: toxicity, organism-based, Sprague-Dawley
# Design: regimen Daily Repeat, gender Male, age 6-8 weeks
# CONDITION_PARAMETERS: in vivo, po, 0 mg/kg, 72 h, tissue Plasma, route oral GAVAGE, dose level Control, time 3 day, […]
Classify on CHOLESTEROL using low bin (below 70 mg/dL), mid bin (70 mg/dL to below 80 mg/dL), high bin (80 mg/dL or more)

INSERT INTO measurements (compound, discrete_label) VALUES
  ('COC1=CC(=O)C[C@@H](C)[C@]12Oc1c(Cl)c(OC)cc(OC)c1C2=O [GRISEOFULVIN]', 'mid bin'),
  ('CC1=C(/C=C/C(C)=C/C=C/C(C)=C\C(=O)O)C(C)(C)CCC1 [ISOTRETINOIN]', 'mid bin'),
  ('CC(C)(Oc1ccc(CCNC(=O)c2ccc(Cl)cc2)cc1)C(=O)O [BEZAFIBRATE]', 'low bin'),
  ('CC(C)n1c(/C=C/C(O)CC(O)CC(=O)O)c(-c2ccc(F)cc2)c2ccccc21 (stereo not given) [FLUVASTATIN]', 'low bin'),
  ('COc1ccc2c(c1)c(CC(=O)OCC(=O)O)c(C)n2C(=O)c1ccc(Cl)cc1 [ACEMETACIN]', 'mid bin'),
  ('CN(C)CCCC1(c2ccc(F)cc2)OCc2cc(C#N)ccc21 (stereo not given) [CITALOPRAM]', 'high bin'),
  ('CC(=O)[C@H]1CC[C@H]2[C@@H]3CCC4=CC(=O)CC[C@]4(C)[C@H]3CC[C@]12C [PROGESTERONE]', 'high bin'),
  ('Oc1c(Cl)cc(Cl)cc1Sc1cc(Cl)cc(Cl)c1O [BITHIONOL]', 'low bin'),
  ('Cn1cnc([N+](=O)[O-])c1Sc1ncnc2nc[nH]c12 [AZATHIOPRINE]', 'mid bin');

* * *

Listed next: entries and their corresponding LYMPHOCYTE.
# Species on record: Rattus norvegicus
# PROTOCOL_TEXT: DrugMatrix - Regimen: Daily Repeat
# Format: toxicity, organism-based, Sprague-Dawley
# Design: regimen Daily Repeat, gender Male, age 6-8 weeks
# CONDITION_PARAMETERS: in vivo, po, 10 mg/kg, 72 h, tissue Blood, route oral GAVAGE, dose level Low, time 3 day, vehicle .5 % CMC
ASSAY_ENDPOINT: LYMPHOCYTE (%)

INSERT INTO results (compound, readout_unit, observed_measurement) VALUES
  ('O=C1CN=C(c2ccccc2)c2cc([N+](=O)[O-])ccc2N1 [NITRAZEPAM]', '%', 90.33),
  ('NS(=O)(=O)c1cc2c(cc1Cl)NCNS2(=O)=O [HYDROCHLOROTHIAZIDE]', '%', 77.33),
  ('COc1c(C)c2c(c(O)c1C/C=C(\C)CCC(=O)OCCN1CCOCC1)C(=O)OC2 [MYCOPHENOLATE MOFETIL]', '%', 92),
  ('CC(=O)O[C@]1(C(C)=O)CC[C@H]2[C@@H]3C=C(Cl)C4=CC(=O)CC[C@]4(C)[C@H]3CC[C@@]21C [CHLORMADINONE ACETATE]', '%', 94.67);
